Values from PubChem BioAssay AID651759

# MEASURED ON: Perilipin-5 (Homo sapiens) + 1-acylglycerol-3-phosphate O-acyltransferase ABHD5 (Homo sapiens) (UniProt Q00G26+Q8WTS1)
# Sequence (Q00G26 whole entry, looked up): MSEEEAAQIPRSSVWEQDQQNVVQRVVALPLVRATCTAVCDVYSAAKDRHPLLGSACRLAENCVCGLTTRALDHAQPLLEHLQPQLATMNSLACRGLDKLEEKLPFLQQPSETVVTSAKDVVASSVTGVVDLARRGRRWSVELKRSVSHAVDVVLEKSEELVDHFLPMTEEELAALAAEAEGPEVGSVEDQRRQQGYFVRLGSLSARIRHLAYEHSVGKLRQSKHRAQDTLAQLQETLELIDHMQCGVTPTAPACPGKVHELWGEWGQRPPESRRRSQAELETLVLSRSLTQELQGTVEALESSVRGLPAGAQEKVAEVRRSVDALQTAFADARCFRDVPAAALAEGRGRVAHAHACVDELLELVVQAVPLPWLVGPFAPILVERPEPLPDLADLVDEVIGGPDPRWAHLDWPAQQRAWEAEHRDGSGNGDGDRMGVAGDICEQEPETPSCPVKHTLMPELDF
# Sequence (Q8WTS1 whole entry, looked up): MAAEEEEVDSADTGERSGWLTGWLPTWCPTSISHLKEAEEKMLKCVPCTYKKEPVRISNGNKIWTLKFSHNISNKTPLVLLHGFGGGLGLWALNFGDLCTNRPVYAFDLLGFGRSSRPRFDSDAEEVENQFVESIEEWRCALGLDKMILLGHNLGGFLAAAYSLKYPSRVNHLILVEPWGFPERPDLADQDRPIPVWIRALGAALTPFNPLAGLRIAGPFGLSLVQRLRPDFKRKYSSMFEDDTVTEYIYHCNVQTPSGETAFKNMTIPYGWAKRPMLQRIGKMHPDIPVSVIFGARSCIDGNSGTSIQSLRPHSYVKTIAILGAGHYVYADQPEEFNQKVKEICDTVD
# ASSAY: blockers of ABHD5 binding to perilipin-5 – cell lysate, luminescence, proteins expressed in HEK293T, late-stage follow-up (AID 651759)
# CONDITION NOTES: ABHD5-PLIN5 interaction
Active and inactive are the calls of the source. How the calls were made is not given here.
Output constraint: value belongs to active, inactive

{"MOLECULE": "CC(=O)Cc1cc(O)c2ccccc2c1OC(=O)c1ccc(Br)cc1", "CLASS ASSIGNMENT": "active"}
{"MOLECULE": "Cc1cc(C)c(NC(=O)C[N+](C)(C)CC(O)COc2cccc3ccccc23)c(C)c1 (stereo unspecified)", "CLASS ASSIGNMENT": "active"}

For `COCCN(CCOC)c1nc(N)c2c(N)nc3c(c2c1C#N)CC(=O)N3Cc1ccc(Cl)cc1` , which call appears in the assay record?
inactive

Just curious, what result did `FC(F)(F)c1cccc(NC(=S)N(CCCN2CCCC2)Cc2cccn2Cc2ccc(Cl)cc2)c1` get here?
inactive

What did the test return for CN(C)CCOC1(Cc2ccc(F)cc2)CCC(C(C)(C)C)CC1 (stereo unspecified) ?
inactive

Tell me the recorded outcome of this test for COc1cc2c(cc1OC)C(C)N(CCc1ccc(Cl)cc1)CC2 (stereo unspecified) .
active

For `O=c1[nH]c(C2CCN(S(=O)(=O)c3ccc(S(=O)(=O)NC4CC4)cc3)CC2)nc2c1nnn2Cc1ccc(F)cc1` , which call appears in the assay record?
active
